Hey, just so you know, these numbers are from PubChem BioAssay (NCATS).

Item-by-item account of max response
experiment: qHTS assay for cell viability of HEK293 cells (AID 743288); further: on the % scale 0 is the no-effect control and ±100 the full control effect; nearly all actives have a fitted effect of over 50% in size
condition.description: ATP luminescence (CellTiter-Glo), 18 h, stronger effect = lower value
Results filed as inconclusive are left out.

{"structure": "OCCOCCO", "max response, %": 1.68}
{"structure": "CCC#N", "max response, %": -7.94}
{"structure": "CC(C)[N+](=O)[O-]", "max response, %": -8.31}
{"structure": "c1ccc(Nc2ccc(Nc3ccccc3)cc2)cc1", "max response, %": -19.5}
{"structure": "OCCBr", "max response, %": 5.14}
{"structure": "Cc1ccc(N)c(N)c1", "max response, %": -20.1}
{"structure": "C=CC(=O)OCCO", "max response, %": -1.05}
{"structure": "CCOS(C)(=O)=O", "max response, %": -14.8}
{"structure": "CC(=O)[O-].CC(=O)[O-].CC(=O)[O-].[Cr+3]", "max response, %": -3.81}
{"structure": "CCCCCC[N+](=O)[O-]", "max response, %": 7.41}
{"structure": "CCC/C=N/O", "max response, %": 1.47}
{"structure": "Oc1c(Cl)c(Cl)cc(Cl)c1Cl", "max response, %": 1.93}
{"structure": "Cc1ccccc1[N+](=O)[O-]", "max response, %": 6.42}
{"structure": "Nc1ccc(-c2ccc(N)cc2)cc1", "max response, %": 2.98}
{"structure": "O=[N+]([O-])c1cccc(CCl)c1", "max response, %": -20.5}
{"structure": "CC(=O)NNc1ccccc1", "max response, %": 2.18}
{"structure": "O=C(Cl)c1ccccc1F", "max response, %": -8.76}

###

experiment: Cell Viability - LYMP2-003 (AID 965);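 further: cells exposed to compounds for 24 h before reading; 0% = DMSO only and full effect = 92 µM tetraoctylammonium bromide; nearly all actives have a fitted effect of over 50% in size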
condition.description: LYMP2-003 lymphoblastoid cell viability; series mostly up to 92.2 µM
From the text: NIH Chemical Genomics Center [NCGC] NIH Molecular Libraries Screening Centers Network [MLSCN] National Institutes of Environmental Health Sciences [NIEHS] National Toxicology Program [NTP] We have developed a 1536-well cell-based assay for quantitative high throughput screening (qHTS) against a number of cell lines to determine in vitro cytotoxicity of small molecules. […] 8. Detection; Luminescence; Viewlux plate reader […]
Records with an inconclusive call do not appear. Activity calls are given as the source filed them. Calls come from the whole dose curve; as a rule, active = well fitted cell-killing curve with a large enough effect; inconclusive = small, poorly fitted or top-dose-only effect, or effect the other way; inactive = flat fitted curve, though single readings scatter.

{"compound": "C=CC(=O)OCC(C)C", "outcome": "inactive"}
{"compound": "Clc1ccc(C(c2ccccc2Cl)C(Cl)(Cl)Cl)cc1 (stereo not drawn)", "outcome": "inactive"}
{"compound": "O=[N+]([O-])c1cccc2c([N+](=O)[O-])cccc12", "outcome": "inactive"}
{"compound": "Clc1cccc2ccccc12", "outcome": "inactive"}
{"compound": "Clc1ccc(C(Cl)(Cl)Cl)cc1Cl", "outcome": "inactive"}
{"compound": "N#CC(O)c1ccccc1 (stereo not drawn)", "outcome": "inactive"}
{"compound": "C=CCc1cc(OC)c2c(c1)OCO2", "outcome": "inactive"}
{"compound": "CC12CC1(C)C(=O)N(c1cc(Cl)cc(Cl)c1)C2=O (stereo not drawn)", "outcome": "inactive"}

###

experiment: qHTS assay for small molecule agonists of the antioxidant response element (ARE) signaling pathway measured by Nrf2-dependant transcriptional activity - cell viability counter screen (AID 720653); further: on the % scale 0 is the no-effect control and ±100 the full control effect
condition.description: ARE-bla HepG2 viability, CellTiter-Glo ATP luminescence, 16 h; stronger effect = lower value
From the text: National Center for Advancing Translational Sciences [NCATS] NIH Chemical Genomics Center [NCGC] U.S. Environmental Protection Agency [EPA] National Institutes of Environmental Health Sciences [NIEHS] National Toxicology Program [NTP] […] The activation of the report gene under culture conditions can be detected by fluorescence intensity. The cytotoxicity of the compounds against the ARE-bla HepG2 cell line was quantified by measuring the intracellular ATP content. […]
Results filed as inconclusive are left out.
Item-by-item account of max response
measured.property: max response (%)

{"molecule": "CCCCC(=O)Cl", "numeric.result": 2.67}
{"molecule": "N#CC(O)c1ccccc1 (centres undefined)", "numeric.result": 12.9}
{"molecule": "O=[N+]([O-])c1cccc(CCl)c1", "numeric.result": -3.2}
{"molecule": "CCOC(=O)CBr", "numeric.result": 1.03}
{"molecule": "c1ccc(P(c2ccccc2)c2ccccc2)cc1", "numeric.result": -10.4}
{"molecule": "CC(C#N)CCC#N (centres undefined)", "numeric.result": 0.528}
{"molecule": "CCC#N", "numeric.result": 13.6}
{"molecule": "Cc1cc(Cl)ccc1O", "numeric.result": 10.4}
{"molecule": "O=[N+]([O-])/C=C/c1ccccc1", "numeric.result": -1.14}
